TEST: Dissociation constant, pKa of the compound
Format: physicochemical
RESULT_TYPE: pKa
The answer should be written as a number, with no unit following it.

                                   compound  result_type  observed_result
0  CS(=N)(=O)c1ccccc1 (configuration not stated)          pKa              2.7

Query :: Annotate the compound CS(=N)(=O)c1ccc(Cl)cc1 (configuration not stated) with its measured pKa.
Result :: 2.3

====

In this section, each of the molecules is paired with its reported pKa.
TEST: physchem
CONDITION_CONTEXT: aqueous/organic mixture, pH 2

>>> df
                        smiles_string  observed_result
0       CNS(=O)(=O)c1ccc(C(F)(F)F)cc1             10.7
1       CS(=O)(=O)Nc1ccc(C(F)(F)F)cc1                8
2        NS(=O)(=O)c1ccc(C(F)(F)F)cc1              9.4
3  CS(=O)(=O)NC(=O)c1ccc(C(F)(F)F)cc1              3.2

Switching to the query record.
Query :: Annotate the molecule "CS(=O)(=O)NC(=O)Nc1ccc(C(F)(F)F)cc1" with its measured pKa.
Result :: 4.2

====

TEST: in vitro
CONDITION_CONTEXT: PAMPA, pH 7.4
Description: Apparent permeability of the compound at pH 7.4 by PAMPA
RESULT_TYPE: Papp (×10⁻⁶ cm/s)
The figure you give is taken to be in ×10⁻⁶ cm/s; do not add the unit.

# count of solved cases: 8
                                   compound  unit_abbreviation  observed_result
0             CS(C)(=N)=Nc1ccc(C(F)(F)F)cc1         ×10⁻⁶ cm/s              5.6
1  CN=S(=O)(NC)c1ccc(C(F)(F)F)cc1 (stereo not drawn)         ×10⁻⁶ cm/s              9.8
2          O=S1(=Nc2ccc(C(F)(F)F)cc2)CCCCC1         ×10⁻⁶ cm/s              7.7
3       CS(C)(=N)=NC(=O)Nc1ccc(C(F)(F)F)cc1         ×10⁻⁶ cm/s              3.3
4              NS(=O)(=O)c1ccc(C(F)(F)F)cc1         ×10⁻⁶ cm/s              4.1
5  CNS(=N)(=O)c1ccc(C(F)(F)F)cc1 (stereo not drawn)         ×10⁻⁶ cm/s              5.7
6        CS(C)(=O)=NC(=O)c1ccc(C(F)(F)F)cc1         ×10⁻⁶ cm/s               11
7             CNS(=O)(=O)c1ccc(C(F)(F)F)cc1         ×10⁻⁶ cm/s              6.3

Query :: Annotate the compound CN=S(=O)(c1ccc(C(F)(F)F)cc1)N(C)C (stereo not drawn) with its measured Papp.
Result :: 9.5

Query :: Annotate the compound "CS(C)(=O)=Nc1ccc(C(F)(F)F)cc1" with its measured Papp.
Result :: 8.2

====

In this section, each of the compounds is paired with its reported solubility thermodynamic.
TEST: physchem
CONDITION_CONTEXT: aqueous

# count of solved cases: 5
>>> df
                                   compound  observed_result
0  CN(C)S(C)(=O)=Nc1ccc(C(F)(F)F)cc1 (stereo not drawn)         70 µg/mL
1  CN=S(C)(=O)c1ccc(C(F)(F)F)cc1 (stereo not drawn)       2400 µg/mL
2  CNS(C)(=O)=Nc1ccc(C(F)(F)F)cc1 (stereo not drawn)        800 µg/mL
3       CS(=O)(=O)NC(=O)Nc1ccc(C(F)(F)F)cc1      11100 µg/mL
4  O=S1(=N[C@H]2CC[C@@H](C(F)(F)F)CC2)CCCCC1       < 50 µg/mL

Query :: Annotate the compound "CC(=O)Nc1ccc(C(F)(F)F)cc1" with its measured solubility thermodynamic.
Result :: 100 µg/mL

Query :: Annotate the compound "O=S1(=Nc2ccccc2Cl)CCCCC1" with its measured solubility thermodynamic.
Result :: 500 µg/mL

Query :: Annotate the compound "CS(C)(=N)=Nc1ccc(C(F)(F)F)cc1" with its measured solubility thermodynamic.
Result :: 8400 µg/mL

Query :: Annotate the compound "O=S1(=Nc2ccc(C(F)(F)F)cc2)CCNCC1" with its measured solubility thermodynamic.
Result :: 2300 µg/mL

Query :: Annotate the compound "CS(C)(=N)=NC(=O)c1ccc(C(F)(F)F)cc1" with its measured solubility thermodynamic.
Result :: 8100 µg/mL

Query :: Annotate the compound "CS(=O)(=O)Oc1ccc(C(F)(F)F)cc1" with its measured solubility thermodynamic.
Result :: 300 µg/mL

Query :: Annotate the compound "CS(=O)(=O)NC(=O)c1ccc(C(F)(F)F)cc1" with its measured solubility thermodynamic.
Result :: > 20000 µg/mL

Query :: Annotate the compound "CN(c1ccc(C(F)(F)F)cc1)S(C)(=O)=O" with its measured solubility thermodynamic.
Result :: 200 µg/mL

====

In this section, each of the compounds is paired with its reported Papp.
TEST: in vitro
CONDITION_CONTEXT: PAMPA, pH 7.4
The figure you give is taken to be in ×10⁻⁶ cm/s; do not add the unit.

# count of solved cases: 2
In [3]: df
Out[3]:
                                   compound  result_type  observed_result
0          CC(C)(C)NC(=O)c1ccc(C(F)(F)F)cc1         Papp              7.1
1  CS(=O)(=Nc1ccc(C(F)(F)F)cc1)C1CC1 (configuration not stated)         Papp              7.8

Switching to the query record.
Query :: Annotate the compound "CS(C)(=O)=NC(=O)Nc1ccc(C(F)(F)F)cc1" with its measured Papp.
Result :: 4.3

====

TEST: in vitro
CONDITION_CONTEXT: human, liver microsomes
Description: Half life in human liver microsomes at 1 uM in presence of NADPH by LC-MS/MS method
RESULT_TYPE: half-life at 1 µM

# count of solved cases: 4
                                   molecule        result_type  observed_result
0  CS(=O)(=Nc1ccc(C(F)(F)F)cc1)c1ccncc1 (configuration not stated)  half-life at 1 µM          0.933 h
1  O=S1(=Nc2cc(C(F)(F)F)cc(C(F)(F)F)c2)CCCCC1  half-life at 1 µM            0.1 h
2  CN=S(=O)(NC)c1ccc(C(F)(F)F)cc1 (configuration not stated)  half-life at 1 µM         > 2.17 h
3  O=S1(c2ccc(C(F)(F)F)cc2)=NCCCC1 (configuration not stated)  half-life at 1 µM         > 2.17 h

Switching to the query record.
Query :: Annotate the molecule "CS(=O)(=O)NC(=O)Nc1ccc(C(F)(F)F)cc1" with its measured half-life at 1 µM.
Result :: > 2.17 h

====

TEST: Apparent partition coefficient, log P of the compound in n-octanol/aqueous mixture at pH 3 by potentiometric titration method
Format: physicochemical
RESULT_TYPE: logD
The answer should be written as a number, with no unit following it.

Query :: Annotate the compound "CS(=O)(=O)Nc1ccc(C(F)(F)F)cc1" with its measured logD.
Result :: 2

====

TEST: physchem
CONDITION_CONTEXT: aqueous
In this section, each of the compounds is paired with its reported solubility thermodynamic.
The figure you give is taken to be in µg/mL; do not add the unit.

                              compound  observed_result
0     N=S1(=Nc2ccc(C(F)(F)F)cc2)CCCCC1              500
1  CS(C)(=N)=NC(=O)Nc1ccc(C(F)(F)F)cc1              500
2        CS(C)(=O)=Nc1ccc(C(F)(F)F)cc1              900
3            CNC(=O)c1ccc(C(F)(F)F)cc1              200
4             NC(=O)c1ccc(C(F)(F)F)cc1              300

Query :: Annotate the compound "O=S1(=Nc2ccc(C(F)(F)F)cc2)CCOCC1" with its measured solubility thermodynamic.
Result :: 300

Query :: Annotate the compound C[S+]([O-])c1ccc(C(F)(F)F)cc1 (stereo not drawn) with its measured solubility thermodynamic.
Result :: 11100

Query :: Annotate the compound "COc1ccc(N=S2(=O)CCCCC2)cc1" with its measured solubility thermodynamic.
Result :: 900

Query :: Annotate the compound "NS(=O)(=O)c1ccc(C(F)(F)F)cc1" with its measured solubility thermodynamic.
Result :: 800

Query :: Annotate the compound "CS(=O)(=O)c1ccc(C(F)(F)F)cc1" with its measured solubility thermodynamic.
Result :: 300

Query :: Annotate the compound "CS(C)(=O)=NC(=O)c1ccc(C(F)(F)F)cc1" with its measured solubility thermodynamic.
Result :: 300

Query :: Annotate the compound "CC(C)(C)NC(=O)c1ccc(C(F)(F)F)cc1" with its measured solubility thermodynamic.
Result :: 10
